# credit: the Immune Epitope Database (IEDB)

Target: HLA-A*68:01
Assay: IEDB peptide-MHC binding, purified MHC/competitive/radioactivity; filed as Kd, often an IC50 or EC50 that approximates it; bounds were set here for any values at or beyond the usual limits of such assays
Conditions: source organism: Vaccinia virus WR
Below is a list of entries, each paired with its recorded Kd value.

# residueString, qualifierSign, Kd (nM)
records = [
    ("FLKDDTLSK", "=", 638),
    ("TVNICIFYDR", "=", 27.7),
    ("VTLFYCDER", "=", 121),
    ("ETSPGEIKPK", "=", 47.5),
    ("NLTDTNFKK", "=", 27),
    ("SVKYYGRSTK", "=", 822),
    ("VSVSDFRDY", "≥", 77700),
    ("TLITLILSNK", "=", 3.73),
    ("LALTDVEKR", "=", 162),
    ("IMFMLIFNVK", "=", 136),
    ("KASMLEKYK", "=", 2850),
    ("SSLRREHIK", "=", 14000),
    ("STGESSILR", "=", 196),
    ("VALYRRIQR", "=", 256),
    ("IITSTKTIEY", "=", 5720),
    ("SSLVKNVNK", "=", 4400),
    ("FLEFSNRVY", "=", 10100),
    ("MMKLGISPSK", "=", 81.1),
    ("KVVDTFISY", "=", 3380),
    ("ESRPFDLIK", "=", 22.1),
    ("NAISSRVDR", "=", 14.9),
]
